Target: TACE (Homo sapiens)
Construct: purchased Immunex
Sequence (P78536 215-824): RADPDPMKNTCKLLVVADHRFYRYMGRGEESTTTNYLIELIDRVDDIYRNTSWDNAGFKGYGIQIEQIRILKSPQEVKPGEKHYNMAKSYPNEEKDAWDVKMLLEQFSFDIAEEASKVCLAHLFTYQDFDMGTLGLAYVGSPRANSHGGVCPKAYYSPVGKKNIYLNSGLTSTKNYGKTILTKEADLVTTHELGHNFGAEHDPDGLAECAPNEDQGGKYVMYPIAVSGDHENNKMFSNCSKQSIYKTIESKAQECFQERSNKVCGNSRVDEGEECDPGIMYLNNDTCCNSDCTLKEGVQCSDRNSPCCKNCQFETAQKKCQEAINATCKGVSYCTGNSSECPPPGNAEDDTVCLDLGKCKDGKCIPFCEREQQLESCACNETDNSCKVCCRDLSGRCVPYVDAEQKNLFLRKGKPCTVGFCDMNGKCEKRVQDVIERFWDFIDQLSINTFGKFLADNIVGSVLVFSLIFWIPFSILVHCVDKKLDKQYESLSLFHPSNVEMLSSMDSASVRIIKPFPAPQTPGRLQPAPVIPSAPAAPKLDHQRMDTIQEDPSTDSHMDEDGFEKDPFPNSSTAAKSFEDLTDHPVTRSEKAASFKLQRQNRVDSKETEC
Assay: Procedure for Measuring TACE Inhibition
Format: biochemical
Settings: read-out: TACE % inhibition at 1 micromolar
Respond with 1 for inhibition at 1 µM values of 30% and above, -1 for values below.

Answered cases to consult:
CCCCCC#CCC(Cc1cccnc1)(C(=O)NO)S(=O)(=O)c1ccc(OC)cc1 (stereo not shown)	1
Cc1occc1S(=O)(=O)C(C)(Cc1ccc(OCCN2CCCCC2)cc1)C(=O)NO (stereo not shown)	-1
C=CCC(CC=C)(C(=O)NO)S(=O)(=O)c1ccc(OC)cc1	-1
COc1ccc(S(=O)(=O)C(C)(Cc2ccc(OCCCN3CCN(c4cccc(Cl)c4)CC3)cc2)C(=O)NO)cc1 (stereo not shown)	1

Shifting focus to the compound that follows.
Given CCCCC(C(=O)NO)S(=O)(=O)c1ccc(OC)cc1 (stereo not shown) , state whether its inhibition at 1 µM is at least 30%.
1
